// reported PEPTIDE ELISA (O.D.) for each item listed
# Test system: antibodies in sera from HCV-seropositive donors
# assay info: ELISA with HCV antibody-positive sera (biotinylated peptides on streptavidin- or avidin-coated plates, unbiotinylated peptides coated directly)
# Type: binding, human
# recorded conditions: Table 12; serum 8240; biotinylated 20-mers
# Procedure: Where peptides were to be coated directly, stock solutions of the peptides were diluted in sodium carbonate buffer, pH 9.6 and used to coat polystyrene microtiter plates at a peptide concentration of 2 to 5 micrograms per milliliter for 1 hour at 37° C. In cases where biotinylated peptides were to be evaluated, plates were first coated with streptavidin in sodium carbonate buffer, pH 9.6 at a concentration of 3 micrograms per milliliter for 1 hour at 37° C. […]
Ends that are not written are not given here.
// no unit, no text: just the number

Take a look at these entries with their results.
SQHLPYIEQGMMLAEQFKQK    0.182
IIPDREVLYREFDEMEECSQ    0.142
TRKTSERSQPRGRRQPIPKV    2.021
PQRKTKRNTNRRPQDVKFPG    2.441
ETWKKPDYEPPVVHGCPLPP    1.511

[ask] Query PEPTIDE ELISA (O.D.) on antibodies in sera from HCV-seropositive donors for RNTNRRPQDVKFPGGGQIVG
[reply] 2.918

[ask] Moving on to the next substance: Leu-Arg-Lys-Ser-Arg-Arg-Phe-Ala-Gln-Ala-Leu-Pro-Val-Trp-Ala-Arg-Pro-Asp-Tyr-Asn [Peptide XVI] (LRKSRRFAQALPVWARPDYN; printed: Leu-Arg-Lys-Ser-Arg-Arg-Phe-Ala-Gln-Ala-Leu-Pro-Val-Trp-Ala-Arg-Pro-Asp-Tyr-Asn)
[reply] 0.388

* * *

// reported optical density (450 nm) for each item listed
# Tested on: antibodies in sera from HCV-seropositive donors
# assay info: ELISA with HCV antibody-positive sera (biotinylated peptides on streptavidin- or avidin-coated plates, unbiotinylated peptides coated directly)
# Format: binding, human
# recorded conditions: Table 8; serum 8285 (HCV); Avidin
Ends that are not written are not given here. * marks the point of attachment. Biotin = O=C1N[C@H]2[C@H](CS[C@H]2CCCCC(=O)*)N1
// no unit, no text: just the number

Take a look at these entries with their results.
Bio-Gly-Gly-Gly-Ser-Trp-Gly-Cys-Ala-Phe-Arg-Gln-Val-Cys-NH2 (Biotin-GGGSWGCAFRQVC-NH2; cysteine pairing not given here) [TM-HIV-2 Bio]    0.163
ETWKKPDYEPPVVHGCPLPP    0.146
Bio-Gly-Gly-Gly-Ile-Trp-Gly-Cys-Ser-Gly-Lys-Leu-Ile-Cys-NH2 (Biotin-GGGIWGCSGKLIC-NH2; cysteine pairing not given here) [TM-HIV-1 Bio]    0.134
IIPDREVLYREFDEMEECSQ    0.270
Bio-Gly-Gly-Tyr-Asn-Lys-Arg-Lys-Arg-Ile-His-Ile-Gly-Pro-Gly-Arg-Ala-Phe-Tyr-Thr-Thr-Lys-Asn-Ile-Ile-Gly-NH2 (Biotin-GGYNKRKRIHIGPGRAFYTTKNIIG-NH2) [V3-mn Bio]    0.143

Okay, next one:
[ask] # query: optical density (450 nm) of entry PQRKTKRNTNRRPQDVKFPG
[reply] 1.592
